- Tested on: double-stranded oligo probe (DNA)
- protocol.notes: High-throughput screen of a compound library with the linear oligo probe (FRET ratio, 384 well plate)
- Type: binding
Structures can show the parent of a compound that is named as a salt. Starred links: 1 amine or outer side, 2 acyl side, 3 side chain; linkers in the order of their positions; H or OH if unused. Positions of bridges follow the written chain, without caps; N, C: chain ends. Non-standard residues stand in square brackets, D forms with d. Residues, ends and D or L forms follow the SMILES beside them. Chains are numbered I, II in the order given. Actinocin(9to1) = Cc1c2oc3c(C)ccc(C(=O)[*:1])c3nc-2c(C(=O)[*:2])c(N)c1=O; NMeV = CN[C@H](C(=O)O)C(C)C; Sar = CNCC(=O)O
Please mark Satisfied if the recorded FRET ratio is equal to or greater than 0.5, and Not satisfied if it falls below.

compound	discrete.label
Cc1nccc2c1[nH]c1cc(O)ccc12 [HARMOL HYDROCHLORIDE]	Not satisfied
CC(=O)Oc1cc2c(cc1OC(C)=O)[C@@H]1c3ccc(OC(C)=O)c(OC(C)=O)c3OC[C@]1(OC(C)=O)C2 [HAEMATOXYLIN PENTAACETATE]	Satisfied
COc1ccc2nc3cc(Cl)ccc3c(Nc3cc(CN4CCCC4)c(O)c(CN4CCCC4)c3)c2n1.O=P(O)(O)O.O=P(O)(O)O.O=P(O)(O)O.O=P(O)(O)O [PYRONARIDINE TETRAPHOSPHATE]	Not satisfied
O=c1n(Cl)c(=O)n(Cl)c(=O)n1Cl	Not satisfied
COc1ccc2c3c([nH]c2c1)C(C)=NCC3	Satisfied
CCCCCCc1ccc(O)cc1O.Nc1c2ccccc2nc2ccccc12	Not satisfied
Cc1c2oc3c(C)ccc(C(=O)N[C@@H]4C(=O)N[C@H](C(C)C)C(=O)N5CCC[C@H]5C(=O)N(C)CC(=O)N(C)[C@@H](C(C)C)C(=O)O[C@@H]4C)c3nc-2c(C(=O)N[C@@H]2C(=O)N[C@H](C(C)C)C(=O)N3CCC[C@H]3C(=O)N(C)CC(=O)N(C)[C@@H](C(C)C)C(=O)O[C@@H]2C)c(N)c1=O [DACTINOMYCIN] (I: T[dV]P[Sar][NMeV] / II: T[dV]P[Sar][NMeV]; ester I:1-I:C, II:1-II:C; linker I:N-II:N via Actinocin(9to1))	Not satisfied
CC(=O)Oc1cccc2c1C(=O)c1c(OC(C)=O)cc(C(=O)O)cc1C2=O	Satisfied
COc1ccc2c(c1)[nH]c1c(C)nccc12	Satisfied
CC[C@@H](CO)NC(=O)[C@@H]1C=C2c3cccc4c3c(cn4C)C[C@H]2N(C)C1 [METHYSERGIDE MALEATE]	Satisfied
CC(C)(C#N)O[C@@H]1O[C@H](CO)[C@@H](O)[C@H](O)[C@H]1O	Not satisfied
CC[C@@]1(O)C[C@H](O)c2c(cc3c(c2O)C(=O)c2c(O)ccc(O)c2C3=O)[C@H]1C(=O)OC [RUTILANTINONE]	Satisfied
